experiment: Ratio of drug level in tumor to brain of C57BL/6 mouse bearing mouse B16-F0 cells at 0.74 to 0.92 MBq, iv after 1 hr; format: ADME, organism-based; details: in vivo
Reported metric: Ratio

Worked examples, 5 compounds total:
-- ask Could you tell me which Ratio is on file for CCN(CC)CCNC(=O)c1cc2cc([125I])ccc2[nH]1.Cl ?
-- reply 1.69

-- ask And what about the compound CCN(CC)CCNC(=O)c1ccc2cc([125I])ccc2n1.Cl.Cl ?
-- reply 10.02

-- ask And what about the compound CCN(CC)CCNC(=O)c1ccc([125I])nc1.Cl.Cl ?
-- reply 24.2

-- ask And what about the compound CCN(CC)CCNC(=O)c1cc2cc([125I])ccc2o1.Cl ?
-- reply 6

-- ask And what about the compound CCN(CC)CCNC(=O)c1cnc2cc([125I])ccc2n1.Cl.Cl ?
-- reply 7.26

(I) CCN(CC)CCNC(=O)c1cc2c([125I])cccc2cn1.Cl.Cl
(II) CCN(CC)CCNC(=O)c1c[nH]c2ccc([125I])cc2c1=O.Cl.Cl
-- ask // returns I or II , whichever has the lower Ratio Let me know the label of the one you choose.
-- reply I

====

experiment: Ratio of drug level in tumor to lung of C57BL/6 mouse bearing mouse B16-F0 cells at 0.74 to 0.92 MBq, iv after 6 hrs; format: ADME, organism-based; conditions: in vivo
Reported metric: Ratio

-- ask Could you tell me which Ratio is on file for CCN(CC)CCNC(=O)c1ccc2cc([125I])ccc2n1.Cl.Cl ?
-- reply 3.23

(a) CCN(CC)CCNC(=O)c1cc2c([125I])cccc2cn1.Cl.Cl
(b) CCN(CC)CCNC(=O)c1cc2cc([125I])ccc2o1.Cl
-- ask Which is greater in Ratio, the first item a or the second item b ? Let me know the label of the one you choose.
-- reply b

(a) CCN(CC)CCNC(=O)c1ccc2cc([125I])ccc2c1.Cl
(b) CCN(CC)CCNC(=O)c1cnc2cc([125I])ccc2n1.Cl.Cl
-- ask // returns a or b , whichever has the lower Ratio Let me know the label of the one you choose.
-- reply a

====

tested on: Brain; test: Biodistribution in brain of C57BL/6 mouse bearing mouse B16-F0 cells at 0.74 to 0.92 MBq, iv after 6 hrs; assay type: ADME, organism-based; settings: in vivo
Reported metric: Drug uptake (% ID/g)

Worked examples, 3 compounds total:
-- ask Could you tell me which Drug uptake is on file for CCN(CC)CCNC(=O)c1cc2cc([125I])ccc2[nH]1.Cl ?
-- reply 0.74

-- ask And what about the compound CCN(CC)CCNC(=O)c1ccc2cc([125I])ccc2c1.Cl ?
-- reply 0.25

-- ask And what about the compound CCN(CC)CCNC(=O)c1ccc([125I])nc1.Cl.Cl ?
-- reply 0.12

(P) CCN(CC)CCNC(=O)c1ccc2cc([125I])ccc2n1.Cl.Cl
(Q) CCN(CC)CCNC(=O)c1c[nH]c2ccc([125I])cc2c1=O.Cl.Cl
-- ask Which is greater in Drug uptake, the first item P or the second item Q ? Let me know the label of the one you choose.
-- reply P

====

test: Biodistribution in intestinal content of C57BL/6 mouse bearing mouse B16-F0 cells at 0.74 to 0.92 MBq, iv after 6 hrs; assay type: ADME, organism-based; conditions: in vivo
Reported metric: Drug uptake (% ID/g)

Worked examples, 5 compounds total:
-- ask Could you tell me which Drug uptake is on file for CCN(CC)CCNC(=O)c1cc2cc([125I])ccc2[nH]1.Cl ?
-- reply 79.85

-- ask And what about the compound CCN(CC)CCNC(=O)c1cc2cc([125I])ccc2o1.Cl ?
-- reply 135.67

-- ask And what about the compound CCN(CC)CCNC(=O)c1c[nH]c2ccc([125I])cc2c1=O.Cl.Cl ?
-- reply 61.06

-- ask And what about the compound CCN(CC)CCNC(=O)c1ccc2cncc([125I])c2n1.Cl.Cl ?
-- reply 43.48

-- ask And what about the compound CCN(CC)CCNC(=O)c1cn2cc([125I])ccc2n1.Cl.Cl ?
-- reply 56.39

(a) CCN(CC)CCNC(=O)c1nc2cc([125I])ccc2[nH]1.Cl.Cl
(b) CCN(CC)CCNC(=O)c1ccc2cc([125I])ccc2c1.Cl
-- ask // returns a or b , whichever has the lower Drug uptake Let me know the label of the one you choose.
-- reply b
(b: 18.72 % ID/g, a: 95.86 % ID/g)

(a) CCN(CC)CCNC(=O)c1cc2c([125I])cccc2s1.Cl
(b) CCN(CC)CCNC(=O)c1ccc2cc([125I])ccc2n1.Cl.Cl
-- ask // returns a or b , whichever has the lower Drug uptake Let me know the label of the one you choose.
-- reply b
(b: 23.36 % ID/g, a: 37.7 % ID/g)

(P) CCN(CC)CCNC(=O)c1cc2c([125I])cccc2cn1.Cl.Cl
(Q) CCN(CC)CCNC(=O)c1ccc([125I])nc1.Cl.Cl
-- ask // returns P or Q , whichever has the lower Drug uptake Let me know the label of the one you choose.
-- reply Q

====

test: Biodistribution in tumor of C57BL/6 mouse bearing mouse B16-F0 cells at 0.74 to 0.92 MBq, iv after 3 hrs; type: ADME, organism-based, Neoplasm; conditions: in vivo
Reported metric: Drug uptake (% ID/g)

-- ask Could you tell me which Drug uptake is on file for CCN(CC)CCNC(=O)c1cn2cc([125I])ccc2n1.Cl.Cl ?
-- reply 7.1

-- ask And what about the compound CCN(CC)CCNC(=O)c1cc2c([125I])cccc2cn1.Cl.Cl ?
-- reply 7.1

-- ask And what about the compound CCN(CC)CCNC(=O)c1ccc([125I])nc1.Cl.Cl ?
-- reply 9.3

(a) CCN(CC)CCNC(=O)c1ccc2cc([125I])ccc2n1.Cl.Cl
(b) CCN(CC)CCNC(=O)c1cc2c([125I])cccc2s1.Cl
(c) CCN(CC)CCNC(=O)c1nc2cc([125I])ccc2[nH]1.Cl.Cl
-- ask Put the entries in order of Drug uptake, starting with the largest number. Please respond by ranking the labels in the order requested.
-- reply a, c, b
(a: 25.4 % ID/g, c: 16.1 % ID/g, b: 10 % ID/g)

====

test system: Spleen; assay: Biodistribution in spleen of C57BL/6 mouse bearing mouse B16-F0 cells at 0.74 to 0.92 MBq, iv after 1 hr; type: ADME, organism-based; conditions: in vivo
Reported metric: Drug uptake (% ID/g)

Worked examples, 4 compounds total:
-- ask Could you tell me which Drug uptake is on file for CCN(CC)CCNC(=O)c1c[nH]c2ccc([125I])cc2c1=O.Cl.Cl ?
-- reply 1.24

-- ask And what about the compound CCN(CC)CCNC(=O)c1ccc2cc([125I])ccc2c1.Cl ?
-- reply 9.7

-- ask And what about the compound CCN(CC)CCNC(=O)c1cc2cc([125I])ccc2[nH]1.Cl ?
-- reply 8.09

-- ask And what about the compound CCN(CC)CCNC(=O)c1ccc2cc([125I])ccc2n1.Cl.Cl ?
-- reply 11.56

(I) CCN(CC)CCNC(=O)c1nc2cc([125I])ccc2[nH]1.Cl.Cl
(II) CCN(CC)CCNC(=O)c1ccc2cncc([125I])c2n1.Cl.Cl
-- ask Which is greater in Drug uptake, the first item I or the second item II ? Let me know the label of the one you choose.
-- reply I
(I: 11.51 % ID/g, II: 5.38 % ID/g)

(1) CCN(CC)CCNC(=O)c1cn2cc([125I])ccc2n1.Cl.Cl
(2) CCN(CC)CCNC(=O)c1ccc([125I])nc1.Cl.Cl
-- ask // returns 1 or 2 , whichever has the lower Drug uptake Let me know the label of the one you choose.
-- reply 2
(2: 5.44 % ID/g, 1: 13.07 % ID/g)

(a) CCN(CC)CCNC(=O)c1cc2cc([125I])ccc2o1.Cl
(b) CCN(CC)CCNC(=O)c1cc2c([125I])cccc2cn1.Cl.Cl
-- ask // returns a or b , whichever has the lower Drug uptake Let me know the label of the one you choose.
-- reply b

(a) CCN(CC)CCNC(=O)c1cnc2cc([125I])ccc2n1.Cl.Cl
(b) CCN(CC)CCNC(=O)c1cc2c([125I])cccc2s1.Cl
-- ask Which is greater in Drug uptake, the first item a or the second item b ? Let me know the label of the one you choose.
-- reply a
(a: 14.21 % ID/g, b: 3.88 % ID/g)

====

assay: Ratio of drug level in tumor to brain of C57BL/6 mouse bearing mouse B16-F0 cells at 0.74 to 0.92 MBq, iv after 3 hrs; format: ADME, organism-based; settings: in vivo
Reported metric: Ratio

Worked examples, 4 molecules total:
-- ask Could you tell me which Ratio is on file for CCN(CC)CCNC(=O)c1ccc2cncc([125I])c2n1.Cl.Cl ?
-- reply 32.18

-- ask And what about the molecule CCN(CC)CCNC(=O)c1cnc2cc([125I])ccc2n1.Cl.Cl ?
-- reply 26.87

-- ask And what about the molecule CCN(CC)CCNC(=O)c1ccc([125I])nc1.Cl.Cl ?
-- reply 42.14

-- ask And what about the molecule CCN(CC)CCNC(=O)c1ccc2cc([125I])ccc2n1.Cl.Cl ?
-- reply 30.54

(A) CCN(CC)CCNC(=O)c1cc2cc([125I])ccc2o1.Cl
(B) CCN(CC)CCNC(=O)c1cc2cc([125I])ccc2[nH]1.Cl
(C) CCN(CC)CCNC(=O)c1cc2c([125I])cccc2cn1.Cl.Cl
(D) CCN(CC)CCNC(=O)c1ccc2cc([125I])ccc2c1.Cl
-- ask Sort the molecules on Ratio; start with the lowest figure. Please respond by ranking the labels in the order requested.
-- reply B, D, A, C
